Test system: PfAP2-HC AP2 domain (GST-tagged)
Assay: gcPBM binding intensity (ln(normalized median fluorescence intensity)); higher = stronger DNA binding
Over roughly 25,000 sequences, “ln(normalized median fluorescence intensity)” has its median near 9.7; the highest 2% begin near 11. Shown is part of a subset that was picked to be rich in the highest values.
Recorded gcPBM binding intensity (ln) by entry

MACROMOLECULE SEQUENCE: CATATAAATAGACACACACACACATATAAATAAATA [CACACA_site7156]
gcPBM binding intensity (ln): 11.1
--
MACROMOLECULE SEQUENCE: ATTCATTCATATGTTACACACACACCCACCCATAAA [CACACA_site9066]
gcPBM binding intensity (ln): 10.1
--
MACROMOLECULE SEQUENCE: TGCAGTCTGGAGAAAAGTACACAGTATCTGGTAGCT [XGTACX_site2013]
gcPBM binding intensity (ln): 9.58
--
MACROMOLECULE SEQUENCE: AAAAAATATATTAAGGCACACACATACATATATATA [CACACA_site9239]
gcPBM binding intensity (ln): 10.2
--
MACROMOLECULE SEQUENCE: AACAAATACAGACACACACACACACTAATAAAAAAA [CACACA_site8067]
gcPBM binding intensity (ln): 11.6
--
MACROMOLECULE SEQUENCE: TGAACACAGACAAATACACACAAAAAAAATAAATAA [CACACA_site4298]
gcPBM binding intensity (ln): 10
--
MACROMOLECULE SEQUENCE: ATTCATTCATATGTTACACACACACGCCCACATAAA [CACACA_site7513]
gcPBM binding intensity (ln): 10.6
--
MACROMOLECULE SEQUENCE: AATAAGTAACAAAATACACACATATATATAATTATA [CACACA_site1837]
gcPBM binding intensity (ln): 10.1
--
MACROMOLECULE SEQUENCE: AAAAAAAACAGACACACACACATAAATATATATAAA [CACACA_site148]
gcPBM binding intensity (ln): 10.4
